# melting point per entry
Test readout: melting point

1) Cn1c(COc2ccc(NC(=O)Nc3cccc(F)c3)cc2)nc2ccccc2c1=O = 195 to 196 °C
2) Cn1c(COc2ccc(NC(=O)/C=C/c3ccc(F)c(F)c3)cc2)nc2ccccc2c1=O = 235 to 236 °C
3) Cn1c(COc2ccc(NC(=O)c3ccc(F)c(F)c3)cc2)nc2ccccc2c1=O = 248 to 249 °C
4) Cn1c(COc2ccc(C(=O)Nc3cccc(F)c3)cc2)nc2ccccc2c1=O = 196 to 197 °C

---

System: MCF-7 cells
Experiment: MTT antiproliferative assay, MCF-7
Assay type: cell-based
Settings: Homo sapiens, MCF7, mean ± SD of three replicates
Method: A431 (Human epidermoid carcinoma cell line) cell, A549 (Human non-small cell lung cancer cell line) cell, MCF-7 (Human breast adenocarcinoma cell line) cell, and NCI-H1975 (Human non-small cell lung cancer cell line) cell were purchased from the Shanghai Cell Bank of the Chinese Academy of Sciences. […] The IC50 value was determined from a sigmoid dose − response curve using Graph-Pad Prism (GraphPad Software, San Diego, CA).
Under this convention, Y denotes IC50 strictly below 10 µM and N denotes IC50 at or above 10 µM.

1) Cn1c(COc2ccc(NC(=O)c3cccc(F)c3)cc2)nc2ccccc2c1=O [Compound 4d] = Y
2) Cn1c(COc2ccc(C(=O)Nc3cccc(F)c3)cc2)nc2ccccc2c1=O [Compound 4b] = Y
3) Cn1c(COc2ccc(NC(=O)c3ccc(F)c(F)c3)cc2)nc2ccccc2c1=O [Compound 4e] = Y
4) Cn1c(COc2ccc(NC(=O)/C=C/c3ccc(F)c(F)c3)cc2)nc2ccccc2c1=O [Compound 4f] = Y
5) Cn1c(COc2ccc(/C=C/c3cccc(F)c3)cc2)nc2ccccc2c1=O [Compound 4c] = Y
6) Cn1c(COc2ccc(/C=N/c3cccc(F)c3)cc2)nc2ccccc2c1=O [A, reference compound] = N
7) Cn1c(COc2ccc(/C=C/C(=O)c3cccc(F)c3)cc2)nc2ccccc2c1=O [Compound 4a] = N
8) Cn1c(COc2ccc(NC(=O)Nc3cccc(F)c3)cc2)nc2ccccc2c1=O [Compound 4g] = N
